Data credit: ChEMBL document CHEMBL1201862

tested on: HT-29; assay: NCI tumour cell line growth inhibition, 48 h
The source made the active and inactive calls. Cut-off read from the data, not from the text of the source: active = GI50 up to about 1.1 µM and inactive = higher.
GI50 values, listed per item
measurement_kind: GI50

                                   compound  system  measurement_kind       value_observed
0                 CN1CCCN2CCN(C)CCN(CC1)CC2   HT-29              GI50  > 100 µM (inactive)
1   CC(=O)OC1=C(c2ccccc2)S(=O)(=O)c2ccccc21   HT-29              GI50  > 100 µM (inactive)
2  CC1=NN(c2nc(N)nc(CSc3cc(Cl)c(C)cc3S(N)(=O)=O)n2)C(C)(C)C1   HT-29              GI50   > 10 µM (inactive)
3  O=C1N[C@@H]2c3c(Br)sc(Br)c3C(=O)[C@@H]2O1   HT-29              GI50    1.9 µM (inactive)
4  c1ccc(CSC(SCc2ccccc2)c2ccc3c(c2)OCO3)cc1   HT-29              GI50   > 10 µM (inactive)
5  O=C(Nc1nc(C23CC4CC(CC(C4)C2)C3)cs1)c1cc2cc(Cl)ccc2oc1=O   HT-29              GI50  > 100 µM (inactive)
6  O=C(NNCC(O)COc1ccccc1)c1ccccc1 (configuration not stated)   HT-29              GI50  > 100 µM (inactive)

====

test system: CAKI-1; experiment: NCI tumour cell line growth inhibition, 48 h
Structures can show the parent of a compound that is named as a salt. Active and inactive are the calls of the source. No stated cut-off is given here; in the data, active = GI50 up to about 1.1 µM and inactive = higher. Numbered stars: 1 amine (or outer) side, 2 acyl side, 3 side chain; on linkers, the order of the positions; unused ones are H or OH. Bridge positions count the residues as written; N and C are the ends. Square brackets hold non-standard residues; d marks the D form. Peptide text beside a SMILES is read from it. X58 = COc1c(N[*:1])cccc1C(=O)O[C@H](C(=O)[C@H](C)C(=O)[*:2])C(C)C; X57 = CC(C)C[C@H](C(=O)[*:2])C(C)C(=O)C1CCCN1[*:1]; NMeY = CN[C@@H](Cc1ccc(O)cc1)C(=O)O; Lac = C[C@H](O)C(=O)O
GI50 values, listed per item

molecule	GI50
CC(=O)ON(C(C)=O)C1C(COC(c2ccccc2)(c2ccccc2)c2ccccc2)OC2OC3(CCCC3)OC21 (stereo not drawn)	> 100 µM (inactive)
COc1ccc(C[C@H]2C(=O)O[C@H](C)[C@H](NC(=O)[C@@H](CC(C)C)C(C)C(=O)C3CCCN3C(=O)[C@H](C)O)C(=O)Nc3cccc(c3OC)C(=O)O[C@@H](C(C)C)C(=O)[C@H](C)C(=O)N[C@@H](CC(C)C)C(=O)N3CCC[C@H]3C(=O)N2C)cc1 (stereo partly drawn) (H-[Lac][X57]T[X58]LP[NMeY](Me); ester 3-C)	> 12.5 µM (inactive)
CS(=O)(=O)N(CCC#N)c1ccc(/C=N/NC(=O)CC(=O)Nc2cccc(Cl)c2)cc1	> 100 µM (inactive)
CN[C@@H](C)[C@@H](O)c1ccccc1 [PSEUDOEPHEDRINE HYDROCHLORIDE]	> 100 µM (inactive)
Cc1nnc2sc(Cl)nn12	21 µM (inactive)
CN(C)c1ccc(/C=C2\N=C(c3ccc(N)cc3)OC2=O)cc1	> 100 µM (inactive)
CCCNC(=O)Cn1c2c(c3ccccc31)CCCC2	77.1 µM (inactive)
CNc1ncnc2c1ncn2C1C=CC(COS(N)(=O)=O)C1 (stereo not drawn)	> 100 µM (inactive)

====

GI50 values, listed per item
tested on: NCI-H522; assay: NCI tumour cell line growth inhibition, 48 h
The source made the active and inactive calls. Cut-off read from the data, not from the text of the source: active = GI50 up to about 1.1 µM and inactive = higher.
measurement_kind: GI50

>>> print(df.to_string())
                                    compound        value_observed
 0  Cc1ccc2c(c1)-c1nc(N)c(C#N)c(-c3ccccc3)c1CCS2(=O)=O    39.2 µM (inactive)
 1  COc1ccc(C(=O)O/N=C2/CCCCC2CN(C)C)cc1 (configuration not stated)   > 100 µM (inactive)
 2        COc1ccc(-c2cc(O)c3cc(OC)ccc3n2)cc1   > 100 µM (inactive)
 3  O=C(O)C(CS)Nc1c2ccccc2[n+]([O-])c2ccccc12 (configuration not stated)    56.9 µM (inactive)
 4                O=C1CCCC/C1=C\c1ccc(Br)cc1    14.8 µM (inactive)
 5  COc1ccc(C2c3cc4c(cc3C(O)C3CCC(=O)N23)OCO4)cc1 (configuration not stated)   > 100 µM (inactive)
 6  C[C@@H]1C[C@](O)([C@@H](C)Cl)C(=O)O[C@@H]2CCN3CC=C(COC(=O)[C@]1(C)O)[C@H]23   > 100 µM (inactive)
 7  O=c1c2ccc(Cl)cc2oc2c(CNc3ccc(S(=O)(=O)Nc4nccs4)cc3)cccc12   > 100 µM (inactive)
 8    Cc1cccc2c3ccc4c(c3n(C)c12)C(=O)C=CC4=O   > 100 µM (inactive)
 9              Nc1ccccc1C(=O)/C=C/c1ccccc1O    34.5 µM (inactive)
10  CC(C)(C)[Si](C)(C)OCCOCn1cc(F)c(=O)[nH]c1=O   > 100 µM (inactive)
11  Cc1nn(C(=O)Cc2ccccc2)c2c1C(c1ccccc1)SC(=N)N2 (configuration not stated)   > 100 µM (inactive)
12  COC(C)(C)CCc1[nH]c2ccccc2c1CC(=O)NCCc1cncn1C   > 100 µM (inactive)
13  C=CCOc1ccc(C2C(C(=O)OCC)C(=O)CC(C)(O)C2C(=O)OCC)cc1OC (configuration not stated)   > 100 µM (inactive)
14  COc1ccc(C(OCC2OC(n3ccc(NC(=O)c4ccccc4)nc3=O)C(O)C2O)(c2ccccc2)c2ccccc2)cc1 (configuration not stated)    2.48 µM (inactive)
15    CCOC(=O)c1c[nH]c2c(Sc3ccccc3)nccc2c1=O    19.7 µM (inactive)
16  [N-]=[N+]=Nc1ccc2c(c1)Sc1ccccc1N2CCCCN1CCN(C(=O)CCNC(=O)Cc2ccc(C(=O)c3ccccc3)cc2)CC1    2.45 µM (inactive)
17  CCOC(=O)c1c(SCCCN2CCCCC2)n(-c2ccccc2)c(=S)n(-c2ccccc2)c1=O    19.3 µM (inactive)
18  CCOC(=O)C1=CN/C(=C(/C)C(=O)OC)SC1C(=O)OCC (configuration not stated)  > 76.7 µM (inactive)
19  O=C1c2ccccc2CCC1C(O)(C(F)(F)F)C(F)(F)F (configuration not stated)   > 100 µM (inactive)
20  O=c1c(O)c(-c2ccc(O)c(O)c2)oc2cc(O)cc(O)c12 [QUERCETIN]    84.3 µM (inactive)
21             CC(=O)NCCc1c[nH]c2ccc(Cl)cc12      91 µM (inactive)
22  COc1ccc(-c2c(C#N)c(N)nc3c2CCS(=O)(=O)c2ccccc2-3)cc1   > 100 µM (inactive)
23  O=C1/C(=C/c2ccccc2)N=C(c2ccccc2)N1n1c(-c2ccccc2)nc2ccccc2c1=O    46.6 µM (inactive)
24  O=C1/C(=C\c2ccc(Cl)cc2Cl)Sc2scc(-c3ccc(O)c(O)c3)[n+]21    16.5 µM (inactive)
25  Cc1cc(N(CCC#N)CCC#N)ccc1/C=N/NC(=O)c1ccccc1    8.34 µM (inactive)
26  C[C@@H]1C[C@@H]2C(=O)N(c3ccccc3)C(=O)[C@@H]2c2[nH]c3ccc(Br)cc3c21      24 µM (inactive)
27  CSc1ccc2c(cc1=O)[C@@H](NC(=O)c1ccc(N)cc1)CCc1cc(O)c(O)c(O)c1-2    13.8 µM (inactive)
28  Cc1ccc(/C=C2\CCCC(CN3CCCCC3)C2=O)cc1 (configuration not stated)    1.79 µM (inactive)
29  FC(F)(F)c1ccc2c(c1)nc(Cc1ccccc1)n2C[C@@H]1CCCN2CCCCC12 (some centres not stated)      14 µM (inactive)
30    COc1cc2ccnc3c(=C(SC)SC)c(=O)c(c1OC)c23    1.56 µM (inactive)
31  COc1cc(N(CCC#N)CCC#N)ccc1C(/N=N/c1cccc([N+](=O)[O-])c1)=N\NC(=O)c1ccc(C)cc1    26.5 µM (inactive)
32  Cc1nc(C(N)=S)sc1C(=O)CC(=O)C(=O)Nc1ccc(Br)cc1    66.4 µM (inactive)
33  O=C(NNCC(O)COc1ccccc1)c1ccccc1 (configuration not stated)   > 100 µM (inactive)
34  CC(=O)O[C@H]1CCC2[C@@H]3CCC4=C(O)c5nocc5C[C@]4(C)C3CC[C@@]21C (some centres not stated)   > 100 µM (inactive)
35  N#C/C(=C\c1ccc(F)cc1)c1nc2ccccc2c(=O)[nH]1   > 100 µM (inactive)
36    CC(=O)/N=C1\C=C(NC(C)=O)C(=O)c2ccccc21    1.33 µM (inactive)
37              CCNc1ncnc2sc(SCc3ccccc3)nc12    62.2 µM (inactive)
38   CCOC(=O)NC(=O)c1cn(CCNCCO)c(=O)[nH]c1=O   > 100 µM (inactive)
39                             CSC1=NC=CCN1C   > 100 µM (inactive)
40  CCOC(=O)CSc1nc(N)c2c(-c3ccccc3)c3c(nc2n1)CCCC3   > 100 µM (inactive)
41  CN1C(c2ccccc2)CC(=O)C(N)C1c1ccccc1 (configuration not stated)      17 µM (inactive)
